// provenance: patent US20250340574A1

Molecular target: CFTR (F508del/MF-HBE cells) (Homo sapiens, UniProt P13569, DEL508-508)
Construct: human bronchial epithelial (HBE) cells derived from CF subjects heterozygous for F508del and a minimal function CFTR mutation (F508del/MF-HBE); endogenous in cells; host or cells: Primary human bronchial epithelial cells from CF subjects (F508del/MF genotype), differentiated at an air-liquid interface
Sequence (P13569 with tags, fused parts or gaps DEL508-508): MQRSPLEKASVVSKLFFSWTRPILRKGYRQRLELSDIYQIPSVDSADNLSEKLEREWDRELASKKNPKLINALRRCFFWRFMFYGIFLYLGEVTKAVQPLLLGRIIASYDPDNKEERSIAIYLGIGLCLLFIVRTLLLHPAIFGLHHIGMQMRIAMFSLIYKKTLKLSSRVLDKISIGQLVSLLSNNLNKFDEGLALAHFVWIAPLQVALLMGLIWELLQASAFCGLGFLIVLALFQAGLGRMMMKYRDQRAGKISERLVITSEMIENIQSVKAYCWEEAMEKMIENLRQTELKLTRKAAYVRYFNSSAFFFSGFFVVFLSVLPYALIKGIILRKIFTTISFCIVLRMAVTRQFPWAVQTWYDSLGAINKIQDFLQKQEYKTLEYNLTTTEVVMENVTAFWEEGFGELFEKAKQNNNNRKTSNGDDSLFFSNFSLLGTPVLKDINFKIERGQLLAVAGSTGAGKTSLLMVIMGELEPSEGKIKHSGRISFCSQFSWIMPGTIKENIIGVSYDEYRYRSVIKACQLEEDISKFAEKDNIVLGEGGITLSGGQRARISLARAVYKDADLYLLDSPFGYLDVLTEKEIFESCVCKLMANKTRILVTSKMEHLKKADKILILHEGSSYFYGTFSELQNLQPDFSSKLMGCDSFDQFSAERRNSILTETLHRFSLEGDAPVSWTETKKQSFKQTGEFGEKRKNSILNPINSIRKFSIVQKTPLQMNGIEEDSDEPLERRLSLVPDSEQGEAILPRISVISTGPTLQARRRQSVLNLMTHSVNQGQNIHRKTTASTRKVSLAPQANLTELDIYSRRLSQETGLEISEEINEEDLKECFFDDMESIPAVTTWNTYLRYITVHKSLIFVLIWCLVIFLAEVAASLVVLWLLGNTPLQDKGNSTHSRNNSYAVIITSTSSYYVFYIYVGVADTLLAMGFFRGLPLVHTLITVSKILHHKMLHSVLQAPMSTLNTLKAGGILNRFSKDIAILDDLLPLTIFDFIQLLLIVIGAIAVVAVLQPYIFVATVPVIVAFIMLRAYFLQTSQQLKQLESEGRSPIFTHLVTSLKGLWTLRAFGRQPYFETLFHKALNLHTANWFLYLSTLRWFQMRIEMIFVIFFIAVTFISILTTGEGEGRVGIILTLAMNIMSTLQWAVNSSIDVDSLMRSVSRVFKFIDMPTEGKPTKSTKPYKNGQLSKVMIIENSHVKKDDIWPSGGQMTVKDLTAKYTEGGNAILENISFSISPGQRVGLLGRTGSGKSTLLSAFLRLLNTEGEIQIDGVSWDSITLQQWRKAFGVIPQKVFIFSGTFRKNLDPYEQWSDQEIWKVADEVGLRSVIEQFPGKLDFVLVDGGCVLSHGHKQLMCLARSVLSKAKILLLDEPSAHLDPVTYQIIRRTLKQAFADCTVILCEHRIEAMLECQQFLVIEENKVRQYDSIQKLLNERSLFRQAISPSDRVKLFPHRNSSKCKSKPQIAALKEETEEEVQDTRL
Test: Ussing chamber assay of CFTR-mediated short-circuit currents, Assay C (0.026 μM to 25 μM, 6 concentrations)
Assay type: cell-based
Settings: with 33 nM potentiator and 18 μM Tezacaftor, 20% human serum
Could you please report measured EC50 for the items listed next?

Q. Look at this molecule and give its reported EC50. Cc1cccc(CC(C)C)c1-c1nc2nc(c1C)OC[C@@H](COC(C)C)N(Cc1cnc3cc(C(C)C)n(C)c3n1)C(=O)c1cccc(c1)S(=O)(=O)N2 (atropisomer, axis not shown) [Compound I-211]
A. < 1 µM

Q. Entry Cc1cccc(CC(C)C)c1-c1nc2nc(c1C)OC[C@@H](CC(C)(C)C)N(Cc1ncc3cc(C(C)(C)C)n(C)c3n1)C(=O)c1cccc(c1)S(=O)(=O)N2 (atropisomer, axis not shown) [IV-47] has what EC50?
A. 1 to 3 µM

Q. Reported EC50 for Cc1cccc(CC(C)C)c1-c1nc2nc(c1C)OC[C@@H](COC(C)C)N(Cc1cnc3cc(C4(C(F)(F)F)CC4)n(C)c3n1)C(=O)c1cccc(c1)S(=O)(=O)N2 (atropisomer, axis not shown; (P)) [IV-76] : what is it?
A. < 1 µM
